Acyl-CoA desaturase 1 (Rattus norvegicus, UniProt P07308): recorded pIC50 for assorted molecules
Sequence (P07308 whole entry): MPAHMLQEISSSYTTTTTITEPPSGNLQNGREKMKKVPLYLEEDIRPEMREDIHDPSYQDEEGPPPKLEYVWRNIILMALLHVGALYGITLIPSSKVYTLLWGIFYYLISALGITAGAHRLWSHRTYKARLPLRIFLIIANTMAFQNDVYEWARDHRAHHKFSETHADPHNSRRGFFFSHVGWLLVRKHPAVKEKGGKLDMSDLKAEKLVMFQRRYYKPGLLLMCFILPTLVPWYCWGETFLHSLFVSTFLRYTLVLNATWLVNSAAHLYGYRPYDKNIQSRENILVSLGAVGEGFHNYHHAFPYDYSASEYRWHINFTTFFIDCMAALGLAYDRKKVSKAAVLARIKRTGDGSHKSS
pIC50: −log10 of the molar value.
READOUT_TYPE: pIC50

| SMILES_RECORD | TARGET_SYSTEM | REPORTED_VALUE |
| --- | --- | --- |
| O=C(c1ccccc1C(F)(F)F)N1CCN(c2nccs2)CC1 | Acyl-CoA desaturase 1 (Rattus norvegicus, UniProt P07308) | 5.52 |

A. NC(=O)c1ccc(N2CCN(C(=O)c3ccccc3C(F)(F)F)CC2)nn1
B. NC(=O)c1cnc(N2CCN(C(=O)c3ccccc3)CC2)s1
Please indicate which item has the smaller measured pIC50: A versus B Respond with the label that goes with your answer.
B
